Origin of measurements: ChEMBL document CHEMBL5230083

# test target: Histone deacetylase 8 (Homo sapiens, UniProt Q9BY41)
# Sequence (Q9BY41 whole entry): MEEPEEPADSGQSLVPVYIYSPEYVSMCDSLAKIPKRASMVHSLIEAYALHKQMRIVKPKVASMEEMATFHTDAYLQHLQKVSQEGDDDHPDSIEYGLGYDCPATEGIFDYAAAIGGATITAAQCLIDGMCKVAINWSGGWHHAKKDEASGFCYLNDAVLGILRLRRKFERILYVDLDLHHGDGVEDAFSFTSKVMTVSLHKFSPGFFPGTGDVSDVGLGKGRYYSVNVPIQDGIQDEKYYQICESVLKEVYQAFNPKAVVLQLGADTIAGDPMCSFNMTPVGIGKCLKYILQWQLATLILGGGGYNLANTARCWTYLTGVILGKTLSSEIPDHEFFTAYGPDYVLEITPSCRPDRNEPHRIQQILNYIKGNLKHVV
readout kind: IC50 (nM)
Report the value in nM with no unit label.

-- ask // IC50 lookup, key: `O=C(NO)c1ccc(CC(=O)N(CCO)c2ccccc2)cc1`
-- reply 1990

-- ask // IC50 lookup, key: `COc1cccc(CN2C(=O)CN(Cc3ccc(C(=O)NO)cc3)C(=O)[C@H]2Cc2ccccc2)c1`
-- reply 171

-- ask // IC50 lookup, key: `O=C(NO)c1ccc(CN2CC(=O)N(Cc3ccccc3)[C@H](Cc3ccccc3)C2=O)cc1`
-- reply 145

-- ask // IC50 lookup, key: `O=C1CN(Cc2ccc(C(=O)NO)cc2)C(=O)[C@H](Cc2c[nH]c3ccccc23)N1`
-- reply 112

====

# test target: Histone deacetylase 4 (Homo sapiens)
# Sequence (P56524 whole entry): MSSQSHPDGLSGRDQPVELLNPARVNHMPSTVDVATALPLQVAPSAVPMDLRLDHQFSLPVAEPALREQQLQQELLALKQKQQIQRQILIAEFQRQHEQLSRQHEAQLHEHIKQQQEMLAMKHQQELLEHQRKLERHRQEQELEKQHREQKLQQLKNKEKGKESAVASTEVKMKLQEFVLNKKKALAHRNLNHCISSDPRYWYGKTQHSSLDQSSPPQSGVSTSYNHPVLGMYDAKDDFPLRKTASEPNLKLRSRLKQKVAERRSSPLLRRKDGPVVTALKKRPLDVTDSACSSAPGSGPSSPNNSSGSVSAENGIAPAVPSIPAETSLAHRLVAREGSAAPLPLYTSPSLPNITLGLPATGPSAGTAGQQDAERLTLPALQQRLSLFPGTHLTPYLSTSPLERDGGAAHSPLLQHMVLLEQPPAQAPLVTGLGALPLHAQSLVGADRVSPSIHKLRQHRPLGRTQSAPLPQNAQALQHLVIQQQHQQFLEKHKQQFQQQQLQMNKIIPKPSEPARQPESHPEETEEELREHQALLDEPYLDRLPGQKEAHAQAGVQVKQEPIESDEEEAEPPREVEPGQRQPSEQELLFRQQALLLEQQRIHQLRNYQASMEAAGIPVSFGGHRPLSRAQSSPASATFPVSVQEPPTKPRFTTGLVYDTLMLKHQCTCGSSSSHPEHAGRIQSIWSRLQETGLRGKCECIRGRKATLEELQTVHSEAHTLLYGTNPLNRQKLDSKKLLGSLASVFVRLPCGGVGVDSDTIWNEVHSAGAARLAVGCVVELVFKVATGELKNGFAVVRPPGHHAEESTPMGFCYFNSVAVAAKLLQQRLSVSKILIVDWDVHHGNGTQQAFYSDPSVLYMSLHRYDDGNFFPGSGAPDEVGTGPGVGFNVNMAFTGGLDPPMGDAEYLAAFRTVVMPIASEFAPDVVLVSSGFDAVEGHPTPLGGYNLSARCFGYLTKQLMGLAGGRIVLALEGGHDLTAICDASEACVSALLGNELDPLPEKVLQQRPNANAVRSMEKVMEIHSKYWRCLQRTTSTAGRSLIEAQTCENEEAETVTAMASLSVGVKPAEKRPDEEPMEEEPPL
readout kind: IC50

-- ask // IC50 lookup, key: `O=C1CN(Cc2ccc(C(=O)NO)cc2)C(=O)[C@@H](Cc2c[nH]c3ccccc23)N1`
-- reply 5.62 µM

====

# Organism: Homo sapiens
# experiment summary: Selectivity index, ratio of IC50 for inhibition of HDAC1 (unknown origin) to IC50 for inhibition of HDAC6 (unknown origin)
readout kind: Ratio IC50
Give only the figure.

These recorded examples may help you get a feel for the data.
# smiles, readout kind, reported result
rows = [
    ("O=C1CN(Cc2ccc(C(=O)NO)cc2)C(=O)[C@@H](Cc2ccccc2)N1", "Ratio IC50", 959),
    ("O=C1CN(Cc2ccc(C(=O)NO)cc2)C(=O)[C@H](Cc2ccccc2)N1", "Ratio IC50", 411),
]

-- ask // Ratio IC50 lookup, key: `O=C(NO)c1ccc(CN2CC(=O)N(Cc3ccc(Cl)cc3)[C@H](Cc3ccccc3)C2=O)cc1`
-- reply 786

-- ask // Ratio IC50 lookup, key: `O=C(NO)c1ccc(CN2CC(=O)N(Cc3cccc(Cl)c3)[C@H](Cc3ccccc3)C2=O)cc1`
-- reply 838

-- ask // Ratio IC50 lookup, key: `O=C(NO)c1ccc(CN2CC(=O)N(Cc3ccccc3)[C@H](Cc3ccccc3)C2=O)cc1`
-- reply 981

-- ask // Ratio IC50 lookup, key: `COc1cccc(CN2C(=O)CN(Cc3ccc(C(=O)NO)cc3)C(=O)[C@H]2Cc2ccccc2)c1`
-- reply 591

-- ask // Ratio IC50 lookup, key: `O=C(NO)c1ccc(CN2CC(=O)N(Cc3ccccc3Cl)[C@H](Cc3ccccc3)C2=O)cc1`
-- reply 823

====

# experiment summary: Microsomal stability in human liver microsomes assessed as half life at 0.5 uM prewarmed for 5 mins followed by NADPH addition and measured for 90 mins by LC-MS/MS analysis
# Type: ADME, Microsome
# condition set: time 95 min
Listing of recorded half-life at 0.5 µM by entry.
Report the value in h with no unit label.

# smiles, half-life at 0.5 µM (h)
data = [
    ("O=C(CCCCCCNC(=O)c1cnc(N(c2ccccc2)c2ccccc2)nc1)NO", 7.5),
    ("O=C(NO)c1ccc(CN2CC(=O)N(Cc3ccccc3Cl)[C@H](Cc3ccccc3)C2=O)cc1", 10.1),
]

Let us move to another entry and its half-life at 0.5 µM.
-- ask // half-life at 0.5 µM lookup, key: `O=C(NO)c1ccc(CN2CC(=O)N(Cc3ccccc3)[C@H](Cc3ccccc3)C2=O)cc1`
-- reply 9.7

====

# test target: Histone deacetylase 11 (Homo sapiens, UniProt Q96DB2)
# Sequence (Q96DB2 whole entry): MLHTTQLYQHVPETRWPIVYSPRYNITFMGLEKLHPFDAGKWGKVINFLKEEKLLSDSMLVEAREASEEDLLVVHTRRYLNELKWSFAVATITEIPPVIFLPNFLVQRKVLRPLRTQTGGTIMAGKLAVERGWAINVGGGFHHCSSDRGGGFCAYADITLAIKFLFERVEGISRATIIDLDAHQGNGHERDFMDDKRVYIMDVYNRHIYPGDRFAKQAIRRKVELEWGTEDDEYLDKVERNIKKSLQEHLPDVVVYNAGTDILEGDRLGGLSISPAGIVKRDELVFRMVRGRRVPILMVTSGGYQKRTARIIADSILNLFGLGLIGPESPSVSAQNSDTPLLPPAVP
# experiment summary: Inhibition of HDAC11 (unknown origin) using Fluor de lys as substrate by fluorescence based analysis
readout kind: IC50 (nM)
Report the value in nM with no unit label.

-- ask // IC50 lookup, key: `O=C1CN(Cc2ccc(C(=O)NO)cc2)C(=O)[C@@H](Cc2c[nH]c3ccccc23)N1`
-- reply 1800

====

# Organism: Homo sapiens
# experiment summary: Selectivity index, ratio of IC50 for inhibition of HDAC8 (unknown origin) to IC50 for inhibition of HDAC6 (unknown origin)
readout kind: Ratio IC50

# smiles, reported result
data = [
    ("O=C(NO)c1ccc(CN2CC(=O)N(Cc3cccc(Cl)c3)[C@H](Cc3ccccc3)C2=O)cc1", 14),
    ("O=C1CN(Cc2ccc(C(=O)NO)cc2)C(=O)[C@H](Cc2ccccc2)N1", 0.9),
    ("O=C1CN(Cc2ccc(C(=O)NO)cc2)C(=O)[C@@H](Cc2ccccc2)N1", 4),
    ("O=C(NO)c1ccc(CN2CC(=O)N(Cc3ccccc3)[C@H](Cc3ccccc3)C2=O)cc1", 15),
    ("COc1cccc(CN2C(=O)CN(Cc3ccc(C(=O)NO)cc3)C(=O)[C@H]2Cc2ccccc2)c1", 12),
]

-- ask // Ratio IC50 lookup, key: `O=C(NO)c1ccc(CN2CC(=O)N(Cc3ccc(Cl)cc3)[C@H](Cc3ccccc3)C2=O)cc1`
-- reply 11

-- ask // Ratio IC50 lookup, key: `O=C(NO)c1ccc(CN2CC(=O)N(Cc3ccccc3Cl)[C@H](Cc3ccccc3)C2=O)cc1`
-- reply 16

====

# System: RPMI-8226
# experiment summary: cells
# Type: functional, cell-based
# condition set: Homo sapiens, RPMI-8226, 72 h
# Description: Antiproliferative activity against human RPMI-8226 cells assessed as inhibition of cell growth incubated for 72 hrs by alamar blue assay
readout kind: pIC50
Remember the convention: pIC50 equals -log10 of concentration in molar.

These recorded examples may help you get a feel for the data.
# compound, pIC50
measured = [
    ("O=C1CN(Cc2ccc(C(=O)NO)cc2)C(=O)[C@@H](Cc2c[nH]c3ccccc23)N1", 4.48),
    ("O=C1CN(Cc2ccc(C(=O)NO)cc2)C(=O)[C@@H](Cc2ccccc2)N1", 4.26),
    ("O=C(NO)c1ccc(CN2CC(=O)N(Cc3ccccc3Cl)[C@H](Cc3ccccc3)C2=O)cc1", 4.92),
]

-- ask // pIC50 lookup, key: O=C(CCCCCCNC(=O)c1cnc(N(c2ccccc2)c2ccccc2)nc1)NO [RICOLINOSTAT]
-- reply 5.03

-- ask // pIC50 lookup, key: `O=C(NO)c1ccc(CN2CC(=O)N(Cc3ccccc3)[C@H](Cc3ccccc3)C2=O)cc1`
-- reply 4.93

-- ask // pIC50 lookup, key: `O=C(NO)c1ccc(CN2CC(=O)N(Cc3cccc(Cl)c3)[C@H](Cc3ccccc3)C2=O)cc1`
-- reply 4.87

====

# test target: Polyamine deacetylase HDAC10 (Homo sapiens, UniProt Q969S8)
# Sequence (Q969S8 whole entry): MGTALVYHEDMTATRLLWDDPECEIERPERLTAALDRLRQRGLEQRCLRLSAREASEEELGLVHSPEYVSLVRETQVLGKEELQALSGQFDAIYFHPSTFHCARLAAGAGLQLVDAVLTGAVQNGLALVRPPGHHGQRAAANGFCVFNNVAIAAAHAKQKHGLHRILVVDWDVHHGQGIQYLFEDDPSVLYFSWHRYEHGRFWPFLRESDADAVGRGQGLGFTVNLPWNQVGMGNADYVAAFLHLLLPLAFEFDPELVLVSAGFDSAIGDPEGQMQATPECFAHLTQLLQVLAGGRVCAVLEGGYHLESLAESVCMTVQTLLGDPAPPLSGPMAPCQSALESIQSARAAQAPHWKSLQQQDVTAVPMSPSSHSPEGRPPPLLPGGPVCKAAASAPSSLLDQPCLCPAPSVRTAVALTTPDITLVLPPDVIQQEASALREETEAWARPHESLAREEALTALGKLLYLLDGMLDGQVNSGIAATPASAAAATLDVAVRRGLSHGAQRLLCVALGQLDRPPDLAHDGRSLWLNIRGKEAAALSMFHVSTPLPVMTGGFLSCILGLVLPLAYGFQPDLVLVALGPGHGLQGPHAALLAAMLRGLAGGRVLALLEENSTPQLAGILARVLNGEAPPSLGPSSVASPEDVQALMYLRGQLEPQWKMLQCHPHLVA
readout kind: pIC50
Remember the convention: pIC50 equals -log10 of concentration in molar.

-- ask // pIC50 lookup, key: `O=C1CN(Cc2ccc(C(=O)NO)cc2)C(=O)[C@@H](Cc2c[nH]c3ccccc23)N1`
-- reply 6.98

====

# test target: Protein deacetylase HDAC6 (Homo sapiens, UniProt Q9UBN7)
# Sequence (Q9UBN7 whole entry): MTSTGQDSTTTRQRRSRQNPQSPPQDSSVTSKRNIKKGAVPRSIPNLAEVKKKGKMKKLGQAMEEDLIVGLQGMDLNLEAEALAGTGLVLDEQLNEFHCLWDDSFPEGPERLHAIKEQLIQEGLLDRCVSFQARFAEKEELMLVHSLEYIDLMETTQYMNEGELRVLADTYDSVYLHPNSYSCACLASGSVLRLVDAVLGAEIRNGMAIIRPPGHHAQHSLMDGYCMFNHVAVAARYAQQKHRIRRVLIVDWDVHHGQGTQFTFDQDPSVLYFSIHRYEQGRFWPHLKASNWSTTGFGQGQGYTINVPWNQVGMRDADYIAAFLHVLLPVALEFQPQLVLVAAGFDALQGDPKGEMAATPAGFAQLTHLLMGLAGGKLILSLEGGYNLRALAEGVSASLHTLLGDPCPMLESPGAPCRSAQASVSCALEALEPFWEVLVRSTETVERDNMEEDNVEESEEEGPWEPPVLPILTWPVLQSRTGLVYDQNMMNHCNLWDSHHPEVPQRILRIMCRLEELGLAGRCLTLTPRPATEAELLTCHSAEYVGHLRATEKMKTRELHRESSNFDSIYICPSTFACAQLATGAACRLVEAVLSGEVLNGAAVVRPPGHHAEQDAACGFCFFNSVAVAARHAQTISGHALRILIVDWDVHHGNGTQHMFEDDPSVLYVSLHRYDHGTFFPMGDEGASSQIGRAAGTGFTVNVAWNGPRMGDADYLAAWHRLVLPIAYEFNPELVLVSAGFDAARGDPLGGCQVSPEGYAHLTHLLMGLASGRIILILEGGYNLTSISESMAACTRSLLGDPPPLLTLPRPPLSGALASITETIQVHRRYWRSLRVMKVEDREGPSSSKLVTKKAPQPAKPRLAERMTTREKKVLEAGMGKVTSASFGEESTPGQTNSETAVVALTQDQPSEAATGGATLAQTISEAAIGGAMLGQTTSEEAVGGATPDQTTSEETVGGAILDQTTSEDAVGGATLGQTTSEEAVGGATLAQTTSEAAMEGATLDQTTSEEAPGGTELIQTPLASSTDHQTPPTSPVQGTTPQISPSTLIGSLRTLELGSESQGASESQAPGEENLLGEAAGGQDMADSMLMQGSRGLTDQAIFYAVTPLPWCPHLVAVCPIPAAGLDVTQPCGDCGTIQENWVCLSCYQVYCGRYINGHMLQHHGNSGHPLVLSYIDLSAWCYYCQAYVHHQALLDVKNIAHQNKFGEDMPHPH
readout kind: pIC50
Remember the convention: pIC50 equals -log10 of concentration in molar.

These recorded examples may help you get a feel for the data.
# compound, readout kind, reported result
rows = [
    ("O=C(NO)c1ccc(CN2CC(=O)N(Cc3ccccc3)[C@H](Cc3ccccc3)C2=O)cc1", "pIC50", 8.01),
    ("O=C1CN(Cc2cccc(C(=O)NO)c2)C(=O)[C@H](Cc2ccccc2)N1", "pIC50", 5.38),
    ("O=C1CN(Cc2ccc(C(=O)NO)cc2)C(=O)[C@@H](Cc2c[nH]c3ccccc23)N1", "pIC50", 9.14),
    ("O=C(NO)c1ccc(CN2CC(=O)N(Cc3ccccc3Cl)[C@H](Cc3ccccc3)C2=O)cc1", "pIC50", 8.00),
    ("O=C1CN(Cc2ccc(C(=O)NO)cc2)C(=O)[C@H](Cc2ccccc2)N1", "pIC50", 7.76),
]

Let us move to another entry and its pIC50.
-- ask Could you share what pIC50 was measured for CN1C(=O)CN(Cc2ccc(C(=O)NO)cc2)C(=O)C1Cc1ccccc1 (racemic) , tested on Protein deacetylase HDAC6 (Homo sapiens, UniProt Q9UBN7)?
-- reply 7.78
